system under test: T1, RL peptide (Octet assay of PS621 variants)
T1 construct: RXKLDEESILKQK with X = L
T1 peptide: RLKLDEESILKQK
assay notes: Octet (BLI), 30 C
For each record, write down the corresponding Octet response.

For each of the items listed, what is its Octet response?
1. PS1121 (designed binder, Variant of PS621) MHSKFSHAGRICGAKFKVGEPIYRCKECSFDDTCVLCVNCFNPKDHKGHHVYTTICTEFNNGICDCGDKEAWNHTLFCKAEEG
2. PS1120 (designed binder, Variant of PS621) MHSKFSHAGRICGAKFKVGEPIYRCKECSFDDTCVLCVNCFNPKDHTGHHVYTKICTEFNNGICDCGDKEAWNHTLFCKAEEG
3. PS1106 (designed binder, Variant of PS621) MHSKFSHAGRICGAKFKVGEPIYRCKECSFDDTCVLCVNCFNPKDHTGHHVYVTICTEFNNGICDCGDKEAWNHTLFCKAEEG
4. PS1112 (designed binder, Variant of PS621) MHSKFSHAGRICGAKFKVGEPIYRCKECSFDDTCVLCVNCFNPKDHTGHHVYTTICTEFNNGICDCGDKTAWNHTLFCKAEEG

1: 10.6; 2: 11.7; 3: 9; 4: 9.9
